This section presents compounds with their documented pIC50 values.
testedSystem: NRAS G12C (Homo sapiens, UniProt P01111+P62937, G12C)
Sequence (P01111 whole entry G12C, one chain of several): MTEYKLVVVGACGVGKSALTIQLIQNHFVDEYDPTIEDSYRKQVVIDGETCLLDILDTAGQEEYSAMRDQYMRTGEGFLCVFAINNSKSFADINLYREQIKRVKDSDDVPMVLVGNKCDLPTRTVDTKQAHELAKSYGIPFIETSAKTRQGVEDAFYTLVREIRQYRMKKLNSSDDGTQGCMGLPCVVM
testSummary: Ras-Raf disruption / FRET / MOA assay (BRAF RBD)
Type: biochemical
measurementContext: NRAS G12C; read-out: NRAS G12C FRET data IC50
pIC50: −log10 of the molar value.

A selection of reference data follows.
INSERT INTO measurements (compound, endpointlabel, result) VALUES
  ('CCn1c(-c2cccnc2[C@H](C)OC)c2c3cc(ccc31)-c1cc(O)cc(c1)C[C@H](NC(=O)[C@H](C(C)C)N(C)C(=O)[C@@H]1CCCN(C(=O)[C@@H]3CN3)C1)C(=O)N1CCC[C@H](N1)C(=O)OCC(C)(C)C2', 'pIC50', '7.00 to 8.00'),
  ('CCn1c(-c2cccnc2[C@H](C)OC)c2c3cc(ccc31)-c1cc(O)cc(c1)C[C@H](NC(=O)[C@H](C(C)C)N(C)C(=O)N1CCN(C(=O)[C@H]3CN3)CC1)C(=O)N1CCC[C@H](N1)C(=O)OCC(C)(C)C2', 'pIC50', '7.00 to 8.00'),
  ('CCn1c(-c2cccnc2[C@H](C)OC)c2c3cc(ccc31)-c1csc(n1)C[C@H](NC(=O)[C@H](C(C)C)N(C)C(=O)N(C)C1CN(C(=O)[C@H]3CN3)C1)C(=O)N1CCC[C@H](N1)C(=O)OCC(C)(C)C2', 'pIC50', '6.00 to 7.00'),
  ('CCn1c(-c2cccnc2[C@H](C)OC)c2c3cc(ccc31)-c1cc(O)cc(c1)C[C@H](NC(=O)[C@H](C(C)C)N(C)C(=O)c1ccc(NC(=O)[C@@H]3CN3)cn1)C(=O)N1CCC[C@H](N1)C(=O)OCC(C)(C)C2 (atropisomer, axis not shown)', 'pIC50', '6.00 to 7.00'),
  ('CCn1c(-c2cccnc2[C@H](C)OC)c2c3cc(ccc31)-c1cc(O)cc(c1)C[C@H](NC(=O)[C@H](C1CCCC1)N(C)C(=O)[C@H]1CCN(C[C@H]3CN3)C1=O)C(=O)N1CCC[C@H](N1)C(=O)OCC(C)(C)C2', 'pIC50', '> 8.00');

Pending compound:
Query string: # pIC50 lookup, item CCn1c(-c2cccnc2[C@H](C)OC)c2c3cc(ccc31)-c1cc(O)cc(c1)C[C@H](NC(=O)[C@H](C(C)C)N(C)C(=O)N(C)CCN(C)C(=O)[C@H]1CN1)C(=O)N1CCC[C@H](N1)C(=O)OCC(C)(C)C2 (atropisomer, axis not shown)
Result string: > 8.00

----------
This section presents compounds with their documented pIC50 values.
testedSystem: NRAS WT (Homo sapiens, UniProt P01111+P62937)
Sequence (P01111 whole entry, one chain of several): as the sequence (P01111 whole entry G12C, one chain of several) above, with C12G counted along it
testSummary: Disruption of BRAF RBD interaction with Ras (FRET / MOA assay, with Cyclophilin A)
Type: biochemical
measurementContext: NRAS WT; read-out: NRAS WT FRET data IC50
pIC50: −log10 of the molar value.

A selection of reference data follows.
INSERT INTO results (compound, result) VALUES
  ('CCn1c(-c2cnccc2COC)c2c3cc(ccc31)-c1cc(O)cc(c1)C[C@H](NC(=O)[C@H](C(C)C)N1COCC1=O)C(=O)N1CCC[C@H](N1)C(=O)OCC(C)(C)C2', '6.00 to 7.00'),
  ('CCn1c(-c2cccnc2[C@H](C)OC)c2c3cc(ccc31)-c1csc(n1)C[C@H](NC(=O)[C@H](CC1CC1)N(C)C(=O)N1CC(OC)C1)C(=O)N1CCC[C@H](N1)C(=O)OCC(C)(C)C2 (atropisomer, axis not shown)', '7.00 to 8.00'),
  ('CCn1c(-c2cccnc2[C@H](C)OC)c2c3cc(ccc31)-c1csc(n1)C[C@H](NC(=O)[C@H](C(C)C)N(C)C(=O)N1CC([C@@H](C)NC)C1)C(=O)N1CCC[C@H](N1)C(=O)OCC(C)(C)C2 (atropisomer, axis not shown)', '6.00 to 7.00'),
  ('CCn1c(-c2cccnc2[C@H](C)OC)c2c3cc(ccc31)-c1csc(n1)C[C@H](NC(=O)[C@H](C(C)C)N(C)C(=O)N1C[C@H](C)N(C)C[C@@H]1C)C(=O)N1CCC[C@H](N1)C(=O)OCC(C)(C)C2', '6.00 to 7.00'),
  ('CCn1c(-c2cc(N3CCN(C)CC3)cnc2[C@H](C)OC)c2c3cc(ccc31)-c1csc(n1)C[C@H](NC(=O)[C@H](C(C)C)N(C)C(=O)N1CCOCC1)C(=O)N1CCC[C@H](N1)C(=O)OCC(C)(C)C2 (atropisomer, axis not shown)', '7.00 to 8.00'),
  ('CCn1c(-c2cccnc2[C@H](C)OC)c2c3cc(ccc31)-c1csc(n1)C[C@H](NC(=O)C1CCC1)C(=O)N1CCC[C@H](N1)C(=O)OCC(C)(C)C2', '6.00 to 7.00'),
  ('CCn1c(-c2cccnc2[C@H](C)OC)c2c3cc(ccc31)-c1csc(n1)C[C@H](NC(=O)[C@H](C(C)C)N(C)C(=O)N1CCCC13CCN(C)CC3)C(=O)N1CCC[C@H](N1)C(=O)OCC(C)(C)C2', '7.00 to 8.00');

Pending compound:
Query string: Fill in the recorded pIC50 for this compound, with NRAS WT (Homo sapiens, UniProt P01111+P62937) as test system: "CCn1c(-c2cccnc2[C@H](C)OC)c2c3cc(ccc31)-c1csc(n1)C[C@H](NC(=O)[C@H](C(C)C)N(C)C(=O)N1C3CC1CS(=O)(=O)C3)C(=O)N1CCC[C@H](N1)C(=O)OCC(C)(C)C2"
Result string: 6.00 to 7.00

----------
This section presents compounds with their documented IC50 values.
testedSystem: KRAS G13C (Homo sapiens, UniProt P01116+P62937, G13C)
Sequence (P01116 1-169 isoform P01116-2 G13C limits assumed, one chain of several): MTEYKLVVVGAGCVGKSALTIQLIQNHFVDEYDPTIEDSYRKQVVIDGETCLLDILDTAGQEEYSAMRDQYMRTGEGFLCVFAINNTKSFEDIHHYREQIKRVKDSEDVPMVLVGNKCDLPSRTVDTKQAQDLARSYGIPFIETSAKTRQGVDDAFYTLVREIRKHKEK
testSummary: Ras-Raf disruption / FRET / MOA assay (BRAF RBD)
Assay type: biochemical
measurementContext: KRAS G13C FRET data IC50, Ras-Raf disruption, with Cyclophilin A

A selection of reference data follows.
INSERT INTO assay_data (compound, endpointlabel, result) VALUES
  ('CCn1c(-c2cccnc2[C@H](C)OC)c2c3cc(ccc31)-c1cc(O)cc(c1)C[C@H](NC(=O)[C@H](C1CCCC1)N(C)C(=O)CN(C)C(=O)[C@@H]1N[C@@H]1C1(OC)CC1)C(=O)N1CCC[C@H](N1)C(=O)OCC(C)(C)C2 (single isomer, unassigned) [Example 323]', 'IC50', '0.01 to 0.1 µM'),
  ('CCn1c(-c2cccnc2[C@H](C)OC)c2c3cc(ccc31)-c1cc(O)cc(c1)C[C@H](NC(=O)[C@H](C(C)C)N(C)C(=O)CN(C)C(=O)[C@H]1CN1CC(=O)N(C)C)C(=O)N1CCC[C@H](N1)C(=O)OCC(C)(C)C2 (stereo partly shown) [Example 270]', 'IC50', '0.01 to 0.1 µM'),
  ('CCn1c(-c2cccnc2[C@H](C)OC)c2c3cc(ccc31)-c1cc(O)cc(c1)C[C@H](NC(=O)[C@H](C1CCCC1)N(C)C(=O)CN(C)C(=O)[C@H]1N[C@H]1C1(C#N)CC1)C(=O)N1CCC[C@H](N1)C(=O)OCC(C)(C)C2 [Example 316]', 'IC50', '0.01 to 0.1 µM');

Pending compound:
Query string: # IC50 lookup, item CCn1c(-c2cccnc2[C@H](C)OC)c2c3cc(ccc31)-c1cc(O)cc(c1)C[C@H](NC(=O)[C@H](C(C)C)N(C)C(=O)CNC(=O)[C@H]1CN1)C(=O)N1CCC[C@H](N1)C(=O)OCC(C)(C)C2 [Example 140]
Result string: < 0.01 µM

----------
testedSystem: KRAS WT (Homo sapiens, UniProt P01116+P62937)
Sequence (P01116 1-169 isoform P01116-2 limits assumed): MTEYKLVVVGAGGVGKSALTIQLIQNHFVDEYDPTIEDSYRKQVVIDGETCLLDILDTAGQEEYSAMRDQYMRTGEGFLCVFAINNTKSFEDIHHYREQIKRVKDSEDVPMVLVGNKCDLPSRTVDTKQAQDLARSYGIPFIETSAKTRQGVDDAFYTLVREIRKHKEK
Sequence (P62937 whole entry): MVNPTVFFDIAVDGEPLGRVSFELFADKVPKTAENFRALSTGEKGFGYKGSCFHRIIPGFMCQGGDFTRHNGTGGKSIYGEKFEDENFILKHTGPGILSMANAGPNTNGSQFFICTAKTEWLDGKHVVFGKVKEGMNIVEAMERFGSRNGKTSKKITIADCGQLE
testSummary: Disruption of BRAF RBD interaction with Ras (FRET / MOA assay, with Cyclophilin A)
Format: biochemical
measurementContext: KRAS WT; read-out: KRAS WT FRET data IC50
This section presents molecules with their documented IC50 values.

Query string: Fill in the recorded IC50 for this molecule, with KRAS WT (Homo sapiens, UniProt P01116+P62937) as test system: "CCn1c(-c2cccnc2COC)c2c3cc(ccc31)-c1cc(O)cc(c1)C[C@H](NC(=O)[C@H](C(C)C)N(C)C(=O)[C@H]1CCN(C(C)=O)C1)C(=O)N1CCC[C@H](N1)C(=O)OCC(C)(C)C2"
Result string: 0.1 to 1 µM

Query string: Fill in the recorded IC50 for this molecule, with KRAS WT (Homo sapiens, UniProt P01116+P62937) as test system: CCn1c(-c2cc(C3CCN(C)CC3)cnc2[C@H](C)OC)c2c3cc(ccc31)-c1csc(n1)C[C@H](NC(=O)[C@H](C(C)C)N(C)C(=O)N(C)C)C(=O)N1CCC[C@H](N1)C(=O)OCC(C)(C)C2 (atropisomer, axis not shown)
Result string: 0.1 to 1 µM

Query string: Fill in the recorded IC50 for this molecule, with KRAS WT (Homo sapiens, UniProt P01116+P62937) as test system: CCn1c(-c2cccnc2[C@@H]2CCCO2)c2c3cc(ccc31)-c1csc(n1)C[C@H](NC(=O)[C@H](C(C)C)N(C)C(=O)N1CC(N(C)C)C1)C(=O)N1CCC[C@H](N1)C(=O)OCC(C)(C)C2 (atropisomer, axis not shown)
Result string: > 10 µM
